Parameter: inhibition at 0.3 µM. Scope: all listed entries.
- TARGET_OR_TEST_SYSTEM: P2X7 receptor (Homo sapiens, UniProt Q99572)
- Construct: host or cells: THP-1 cells differentiated with LPS and IFN-γ
- Sequence (Q99572 1-595): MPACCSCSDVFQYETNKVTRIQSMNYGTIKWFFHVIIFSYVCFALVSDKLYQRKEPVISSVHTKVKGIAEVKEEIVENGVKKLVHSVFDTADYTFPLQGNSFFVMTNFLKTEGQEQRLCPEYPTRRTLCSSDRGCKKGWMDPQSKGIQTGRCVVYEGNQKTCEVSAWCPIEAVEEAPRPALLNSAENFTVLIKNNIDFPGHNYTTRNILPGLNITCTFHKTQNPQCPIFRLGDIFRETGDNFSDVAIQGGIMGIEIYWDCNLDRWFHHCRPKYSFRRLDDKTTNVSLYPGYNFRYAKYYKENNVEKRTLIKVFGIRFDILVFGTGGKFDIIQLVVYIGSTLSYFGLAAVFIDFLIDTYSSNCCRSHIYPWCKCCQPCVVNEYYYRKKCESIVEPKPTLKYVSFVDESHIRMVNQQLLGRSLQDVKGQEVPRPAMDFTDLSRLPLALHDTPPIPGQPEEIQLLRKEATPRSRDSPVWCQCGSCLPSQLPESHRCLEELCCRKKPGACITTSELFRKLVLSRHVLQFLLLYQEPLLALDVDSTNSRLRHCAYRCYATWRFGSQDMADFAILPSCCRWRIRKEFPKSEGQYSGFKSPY
- METHOD_NOTES: Alternate method for IL-1β release assay (differentiated THP-1 cells, BzATP-stimulated, ELISA)
- Type: cell-based
- CONDITION_DETAILS: P2X7; 0.3 μM compound (asterisk symbols); read-out: IL-1β % inhib @ 0.3 μM

Recorded inhibition at 0.3 µM, per entry:
In [3]: df
Out[3]:
                                   molecule                     target_or_test_system     result
0  COc1ccc(C(=O)N2CCc3c(ncnc3NCC34CC5CC(CC(C5)C3)C4)C2)cc1F [Compound 158]  P2X7 receptor (Homo sapiens, UniProt Q99572)      > 75%
1  O=C(c1ccc2ccccc2c1)N1CCc2c(ncnc2NCC23CC4CC(CC(C4)C2)C3)C1 [Compound 143]  P2X7 receptor (Homo sapiens, UniProt Q99572)  50 to 75%
2  CC(=O)N1CCC(C(=O)N2CCc3c(ncnc3NCC34CC5CC(CC(C5)C3)C4)C2)CC1 [Compound 148]  P2X7 receptor (Homo sapiens, UniProt Q99572)   0 to 25%

Record summary for O=C(c1ccc(Cl)cc1)N1CCc2c(ncnc2NCC23CC4CC(CC(C4)C2)C3)C1 [Compound 82] : reported inhibition at 0.3 µM = 25 to 50%

Looking up O=C(c1ccc(F)c(F)c1)N1CCc2c(ncnc2NCC23CC4CC(CC(C4)C2)C3)C1 [Compound 88] , I found its inhibition at 0.3 µM recorded as > 75%

###

- TARGET_OR_TEST_SYSTEM: P2X7 receptor (Homo sapiens, UniProt Q99572)
- Construct: host or cells: THP-1 cells differentiated with LPS and IFN-γ
- METHOD_NOTES: Alternate method for IL-1β release assay (differentiated THP-1 cells, BzATP-stimulated, ELISA)
- Format: cell-based
- CONDITION_DETAILS: P2X7; 0.3 μM compound (symbols * to ****); read-out: IL-1β % inhib @ 0.3 μM
- Experimental: Alternate Method for IL-1β Release Assay THP-1 cells (ATCC Cat #285-IF-100) are plated in 96 well plates at a concentration of 200,000 cells per well and allowed to differentiate in RPMI-1640 media (ATCC Cat #30-2001) containing 10% FBS, 100 IU/mL penicillin, 100 ug/mL streptomycin, 100 ng/mL LPS and 100 ng/mL IFN-γ for 16 hours. […]
Below is a list of entries, each paired with its recorded inhibition at 0.3 µM value.

                                   compound     result
0  O=C(CN1CCc2ccccc2C1)N1CCc2c(ncnc2NCC2C3CC4CC(C3)CC2C4)C1 (centres unmarked)  25 to 50%
1  FC(F)Oc1ccc(CN2CCc3c(ncnc3NCC34CC5CC(CC(C5)C3)C4)C2)cc1   0 to 25%
2  Cc1ccc(CN(C)CC(=O)N2CCc3c(ncnc3NCC3C4CC5CC(C4)CC3C5)C2)cc1 (centres unmarked)  25 to 50%

`Brc1cccc(CN2CCc3c(ncnc3NCC34CC5CC(CC(C5)C3)C4)C2)c1` has a reported inhibition at 0.3 µM of > 75%

response.value for `Brc1ccc(CN2CCc3c(ncnc3NCC34CC5CC(CC(C5)C3)C4)C2)cc1` (field: inhibition at 0.3 µM) = > 75%

For CC(C)N(C)CC(=O)N1CCc2c(ncnc2NCC2C3CC4CC(C3)CC2C4)C1 (centres unmarked) the compound record lists inhibition at 0.3 µM as 0 to 25%

For record `CC(=O)Nc1ccc(CN2CCc3c(ncnc3NCC34CC5CC(CC(C5)C3)C4)C2)cc1` the listed inhibition at 0.3 µM is 0 to 25%

Measured inhibition at 0.3 µM, O=C(CN1CCN(CCn2cccc2)CC1)N1CCc2c(ncnc2NCC2C3CC4CC(C3)CC2C4)C1 (centres unmarked) : 25 to 50%
